Provenance of the data: ChEMBL document CHEMBL2163296

MEASURED_TARGET: 5-hydroxytryptamine receptor 2C (Homo sapiens)
Sequence (P28335 whole entry): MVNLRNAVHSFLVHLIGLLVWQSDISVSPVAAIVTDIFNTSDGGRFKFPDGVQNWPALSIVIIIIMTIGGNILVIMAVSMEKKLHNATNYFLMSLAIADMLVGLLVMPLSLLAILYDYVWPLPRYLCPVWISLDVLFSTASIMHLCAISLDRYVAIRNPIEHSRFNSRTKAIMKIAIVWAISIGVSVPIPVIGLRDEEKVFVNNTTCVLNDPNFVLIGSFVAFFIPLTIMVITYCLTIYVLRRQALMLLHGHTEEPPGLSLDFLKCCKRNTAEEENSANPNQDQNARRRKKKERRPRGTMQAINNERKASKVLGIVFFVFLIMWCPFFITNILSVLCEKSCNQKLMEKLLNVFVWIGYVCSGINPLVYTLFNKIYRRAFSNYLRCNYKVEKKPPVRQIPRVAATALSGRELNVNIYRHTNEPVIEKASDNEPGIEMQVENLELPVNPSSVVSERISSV
pKi: −log10 of the molar value.
MEASURED_METRIC: pKi

- CNC(=O)c1cc(Oc2ccc(NC(=O)Nc3ccc(Cl)c(C(F)(F)F)c3)cc2)ccn1 [SORAFENIB]: 6.38

###

MEASURED_TARGET: 5-hydroxytryptamine receptor 5A (Homo sapiens, UniProt P47898)
Sequence (P47898 whole entry): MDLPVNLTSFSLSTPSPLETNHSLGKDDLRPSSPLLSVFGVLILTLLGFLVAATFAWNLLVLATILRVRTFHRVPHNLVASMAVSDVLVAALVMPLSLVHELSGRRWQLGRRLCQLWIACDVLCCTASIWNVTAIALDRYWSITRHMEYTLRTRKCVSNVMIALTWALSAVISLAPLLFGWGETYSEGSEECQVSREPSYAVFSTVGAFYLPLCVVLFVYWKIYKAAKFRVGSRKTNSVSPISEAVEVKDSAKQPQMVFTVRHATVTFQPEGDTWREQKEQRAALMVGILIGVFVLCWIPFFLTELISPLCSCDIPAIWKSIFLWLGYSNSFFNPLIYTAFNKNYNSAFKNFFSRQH
MEASURED_METRIC: Ki (µM)

• CNC(=O)c1cc(Oc2ccc(NC(=O)Nc3ccc(Cl)c(C(F)(F)F)c3)cc2)ccn1 [SORAFENIB] = 3.3
